# target under test: T1, VEGF-D (recombinant human; source not given) (human, UniProt O43915 89-205, limits assumed)
# T1 construct: also used here as target of IC50 values averaged over Source 1 and Source 2; also called vascular endothelial growth factor-D
# T1 sequence: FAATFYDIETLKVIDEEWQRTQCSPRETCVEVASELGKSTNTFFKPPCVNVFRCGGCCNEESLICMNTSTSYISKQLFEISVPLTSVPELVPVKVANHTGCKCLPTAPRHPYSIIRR
# experiment description: SPR (BIAcore) off-rate ranking of scFv clones
recorded metric: koff (s⁻¹)
Write the value in s⁻¹ as a bare number.

Look over these answered cases.
| binder | unit string | koff |
| --- | --- | --- |
| scFv clone Z23 (scFv, G131R lies in the scFv linker) scFv: QVQLVQSGAEVKQPGASVKVSCKASGYTFTGYNMYWVRQAPGQGLGWMGYIDPYNGDTTYNQKFKGRVTMTTDTSTSTAYMELRSLRSDDTAVYYCARTSYYGGMDYWGRGTLVTVASGGGASGGGGSGGRGSDIVMTQTPLSSPVTLGQPASISCRSSQSLVHSNGNTYLHWLQQRPGQPPRLLIYKVSNRFSGVPDRFSGSGAGTDFTLKISRVEAEDVGVYYCSQSTHVPRTFGQGTKLEIKR | s⁻¹ | 0.00556 |
| scFv clone HU75 (scFv) scFv: QVQLVQSGAEVKQPGASVKVSCKASGYTFTGYNMYWVRQAPGQGLEWMGYIDPYNGDTTYNQKFKGRVTMTTDTSTSTAYMKLRSLRSDDTAVYYCARTSYYGGMDYWGRGTLVTVASGGGASGGGGSGGGGSDIVMTQTPLSGPVTLGQPASISCRSSQSLVHSNGNTYLHWLQQRPGQPPRLLIYKVSNRFSGVPDRFSGSGAGTDFTLKISRVEAEDVGVYYCSQSTHVPRTFGRGTKLEIKR | s⁻¹ | 0.00181 |

# ---- query binder ----
# lookup: koff of scFv clone BF36 (scFv) scFv: QVQLVQSGAEVKQPGASVKVSCKASGYTFTGYNMYWVRQAPGQGLEWMGYIDPYNGDTTYNQRFKGRVTMTTDTSTSTAYMKLRSLRSDDTAVYYCARTSYYGGMDYWGRGALVTVASGGGASGGGGSGGGGSDIVMTQTPLSSPVTLGQPASISCRSSQSLVHSNGNTYLHWLQQRPGQPPRLLIYKVSNRFSGVPDRFSGSGAGTDFTLRISRVEAEDVGVYYCSQSTHVPRTFGQGTKLEIKR 0.00362
